Where do these numbers come from? They come from patent US10525055B2.

Here, each record is paired with measured Approximate Solubility (mg/mL) in Excipient: Cottonseed oil data.
Assay: Solubility determination in oil (cottonseed oil, sesame oil)
Details: Cottonseed oil; heating temp. 60 °C, obs. temp. 25 °C

Sample answers from the record:
INSERT INTO assay_data (smiles_text, observed_result) VALUES
  ('C=C1CC[C@@]2(O)C3Cc4ccc(OC(=O)CCCCCCC/C=C\CCCCCCCC)c5c4[C@@]2(CCN3CC2CC2)[C@H]1O5', '>407 mg/mL'),
  ('C=C1CC[C@@]2(O)C3Cc4ccc(OC(=O)OCCCCCCCCCC)c5c4[C@@]2(CCN3CC2CC2)[C@H]1O5', '>400 mg/mL'),
  ('C=C1CC[C@@]2(O)C3Cc4ccc(OC(=O)OCCCCCCCC)c5c4[C@@]2(CCN3CC2CC2)[C@H]1O5', '>408 mg/mL'),
  ('CCCCC/C=C\C/C=C\CCCCCCCC(=O)Oc1ccc2c3c1O[C@H]1C(=O)CC[C@@]4(O)C(C2)N(CC2CC2)CC[C@]314', '>408.5 mg/mL'),
  ('C=C1CC[C@@]2(O)C3Cc4ccc(OC(=O)OCCCCCCCCCCCC)c5c4[C@@]2(CCN3CC2CC2)[C@H]1O5', '>397 mg/mL');

I am curious: what Approximate Solubility (mg/mL) in Excipient: Cottonseed oil value has been reported for CCCCCCCCOC(=O)Oc1ccc2c3c1O[C@H]1C(=O)CC[C@@]4(O)C(C2)N(CC2CC2)CC[C@]314 ?
>407.7 mg/mL

----------
Test: Liver S9 fraction stability, monkey
Assay type: in vitro ADME, cynomolgus monkey
Details: 1.0 mg/ml S9 protein, 2 μM, 37° C.
Values of Liver S9 Fraction Stability % remaining at 60 minutes, Monkey strictly less than 60% map to Met, and values of at least 60% map to Not met.

INSERT INTO results (compound, class_name) VALUES
  ('CCCCCCCCCCCCCCCC(=O)OC1CCCn2c1nc(C)c(CCN1CCC(c3noc4cc(F)ccc34)CC1)c2=O (centres unmarked) [Paliperidone palmitate, reference compound]', 'Met');

Please determine if CCCCCCCCCCCC(=O)OCN1C(=O)CCc2ccc(OCCCCN3CCN(c4cccc(Cl)c4Cl)CC3)cc21 [Aripiprazole lauroxil, reference compound] is below 60% in terms of Liver S9 Fraction Stability % remaining at 60 minutes, Monkey.
Met

Can you handle C=C1CC[C@@]2(O)C3Cc4ccc(OCOC(=O)OCCCCCCCCCCCC)c5c4[C@@]2(CCN3CC2CC2)[C@H]1O5 next?
Met

Can you handle C=C1CC[C@@]2(O)C3Cc4ccc(OC(=O)OCCCCCCCCCCCC)c5c4[C@@]2(CCN3CC2CC2)[C@H]1O5 next?
Met

Can you handle C=C1CC[C@@]2(O)C3Cc4ccc(OC(=O)CCCCCCC/C=C/CCCCCCCC)c5c4[C@@]2(CCN3CC2CC2)[C@H]1O5 next?
Not met

----------
Here, each record is paired with measured % remaining at time point in minutes, 480 min data.
Assay: Plasma stability assay, human plasma
Format: in vitro ADME
Conditions: 37° C., 2 μM, 480 min (as headed)
Return type: number; implicit unit %.

INSERT INTO assay_data (molecule, observed_result) VALUES
  ('C=C1CC[C@@]2(O)C3Cc4ccc(OCOC(=O)OCCCCCCCCCCCC)c5c4[C@@]2(CCN3CC2CC2)[C@H]1O5 [Compound 24]', 105.3),
  ('CCCCCCCCCCCC(=O)OCN1C(=O)CCc2ccc(OCCCCN3CCN(c4cccc(Cl)c4Cl)CC3)cc21 [Aripiprazole lauroxil, reference compound]', 73.2),
  ('CCCCCCCCCCCCCCCC(=O)OC1CCCn2c1nc(C)c(CCN1CCC(c3noc4cc(F)ccc34)CC1)c2=O (centres unmarked) [Paliperidone palmitate, reference compound]', 109.1);

I am curious: what % remaining at time point in minutes, 480 min value has been reported for C=C1CC[C@@]2(O)C3Cc4ccc(OC(=O)OCCCCCCCCCCCC)c5c4[C@@]2(CCN3CC2CC2)[C@H]1O5 [Compound 6] ?
109.8

Can you handle C=C1CC[C@@]2(O)C3Cc4ccc(OC(=O)CCCCCCC/C=C/CCCCCCCC)c5c4[C@@]2(CCN3CC2CC2)[C@H]1O5 [Compound 15] next?
107.1
